Exercise: for every item that follows, state its recorded SPOT peptide array binding signal intensity.
EXPERIMENTAL SYSTEM: ScSho1
ASSAY SUMMARY: SPOT peptide array binding signal intensity (averaged, normalized) (arbitrary units (background-subtracted, floor 0; scale differs between SH3 domains)); higher = stronger binding of the SH3 domain to the peptide
API note: the answer field is a bare number with no unit suffix.

Request: Output SPOT peptide array binding signal intensity of VTHRLRISIPGITGR
Response: 946

Request: Output SPOT peptide array binding signal intensity of KKEKKPPKIPKKVYT
Response: 109

Request: Output SPOT peptide array binding signal intensity of NFFRKKLGIPRKLKR
Response: 473

Request: Output SPOT peptide array binding signal intensity of VPPPMQPPPIESSNL
Response: 324

Request: Output SPOT peptide array binding signal intensity of RRSKSLPITPKSIFN
Response: 4000

Request: Output SPOT peptide array binding signal intensity of MAMRPIPPLPTESEY
Response: 543

Request: Output SPOT peptide array binding signal intensity of LEFRAILFIPKRAPF
Response: 3570

Request: Output SPOT peptide array binding signal intensity of KRRAPPPVPKKPSSR
Response: 3480

Request: Output SPOT peptide array binding signal intensity of AGKRRLPLVRFKASD
Response: 2030

Request: Output SPOT peptide array binding signal intensity of RTIRKLPLMSLSEYF
Response: 1040

Request: Output SPOT peptide array binding signal intensity of NIKVLLNPKLGKPVK
Response: 696

Request: Output SPOT peptide array binding signal intensity of GKFIPSRPAPKPPSS
Response: 66.5

Request: Output SPOT peptide array binding signal intensity of RRRRRPHRIERPLSN
Response: 430

Request: Output SPOT peptide array binding signal intensity of NFKRLLPRDPSEKSS
Response: 1040
